Source listed as patent US20170342126A1.

ASSAY TARGET: T1, HLA-DR DRB1*1302 (human)
T1 chain 1: not shown
T1 chain 2: not shown
PROTOCOL DETAILS: radioligand inhibition, purified HLA-DR
CONDITION SET: remark: other sources report otherwise
READOUT KIND: pIC50
// field semantics: pIC50 = negative decimal log of concentration (mol/L)

Item TTPVTGASPGGLREL [Peptide 9019.0037, Her2/neu.126] has what recorded pIC50? 6.22
